- protocol.notes: Displacement of [3H]cytisine from neuronal nicotinic acetylcholine receptor in rat brain membrane
- Type: cell membranes
test.readout: log10 Ki (log10 of the value in nM)
All values: base-10 log of Ki in nM.

In [3]: df
Out[3]:
                      chemical_smiles  measured_result
0     Clc1ccc(N2C[C@H]3CNC[C@H]32)cn1             0.08
1     c1cncc(N2C[C@@H]3CNC[C@@H]32)c1            -0.15
2  N#Cc1cncc(N2C[C@@H]3CNC[C@@H]32)c1            -0.05

For Cc1ncc(N2C[C@@H]3CN[C@@H]3C2)cc1C#N , write its log10 Ki.
-0.22

For Cc1cc(N2C[C@@H]3CNC[C@@H]32)cnc1C , write its log10 Ki.
0.49

For Clc1ccc(N2C[C@@H]3CN[C@@H]3C2)cn1 , write its log10 Ki.
-0.22

For Cc1cc(N2C[C@@H]3CN[C@@H]3C2)cnc1Cl , write its log10 Ki.
-1.10

* * *

- assay.target: Neuronal acetylcholine receptor; alpha3/beta4 (Homo sapiens, UniProt P30926+P32297)
- Sequence (P30926 whole entry): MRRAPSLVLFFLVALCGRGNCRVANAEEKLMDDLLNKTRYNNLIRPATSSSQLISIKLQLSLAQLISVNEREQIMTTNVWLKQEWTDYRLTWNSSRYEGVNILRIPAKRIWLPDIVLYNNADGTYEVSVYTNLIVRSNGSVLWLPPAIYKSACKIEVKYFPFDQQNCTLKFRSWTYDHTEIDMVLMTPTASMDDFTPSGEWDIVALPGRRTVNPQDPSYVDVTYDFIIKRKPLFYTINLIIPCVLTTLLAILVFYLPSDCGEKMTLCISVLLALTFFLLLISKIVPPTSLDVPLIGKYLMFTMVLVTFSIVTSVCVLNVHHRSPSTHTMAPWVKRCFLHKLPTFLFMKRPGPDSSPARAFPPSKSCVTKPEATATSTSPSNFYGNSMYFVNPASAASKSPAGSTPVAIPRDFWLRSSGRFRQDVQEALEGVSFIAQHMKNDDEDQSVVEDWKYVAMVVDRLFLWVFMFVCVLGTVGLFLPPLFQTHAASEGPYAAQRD
- Sequence (P32297 whole entry): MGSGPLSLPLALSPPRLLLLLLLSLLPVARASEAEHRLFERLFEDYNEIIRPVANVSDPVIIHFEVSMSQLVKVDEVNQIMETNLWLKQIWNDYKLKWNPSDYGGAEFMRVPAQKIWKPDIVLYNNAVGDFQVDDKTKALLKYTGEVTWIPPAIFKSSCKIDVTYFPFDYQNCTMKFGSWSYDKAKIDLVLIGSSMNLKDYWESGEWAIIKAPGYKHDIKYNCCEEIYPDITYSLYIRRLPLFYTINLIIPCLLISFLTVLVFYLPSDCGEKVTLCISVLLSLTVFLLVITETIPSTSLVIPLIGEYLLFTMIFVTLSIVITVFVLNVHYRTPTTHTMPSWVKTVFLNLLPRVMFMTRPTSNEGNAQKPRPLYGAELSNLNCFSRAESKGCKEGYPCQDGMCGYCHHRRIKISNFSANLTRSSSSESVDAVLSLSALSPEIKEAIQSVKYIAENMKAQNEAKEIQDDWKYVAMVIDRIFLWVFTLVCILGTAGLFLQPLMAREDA
- protocol.notes: Agonist activity at recombinant human alpha3beta4 nAChR expressed in HEK293 cells assessed as induction of calcium influx by FLIPR assay relative to nicotine
- Format: functional, cell-based
Recorded Activity values for a group of compounds are listed next.
Dear colleague, please return just the value in %, with no unit written.

>>> print(df.to_string())
                     chemical_smiles  measured_result
0  Clc1cncc(N2C[C@@H]3CN[C@@H]3C2)c1               57
1  Brc1cncc(N2C[C@@H]3CNC[C@@H]32)c1               23
2      c1cncc(N2C[C@H]3CN[C@H]3C2)c1              119

For Brc1cc(N2C[C@H]3CNC[C@H]32)cnc1Br , write its Activity.
94

For Clc1cc(N2C[C@@H]3CN[C@@H]3C2)cnc1Cl , write its Activity.
92

For c1cncc(N2C[C@H]3CNC[C@H]32)c1 , write its Activity.
62

* * *

- protocol.notes: Displacement of [3H]cytisine from neuronal nicotinic acetylcholine receptor in rat brain membrane
- Format: cell membranes
test.readout: Log Ki

Here's what some known entries look like.
In [3]: df
Out[3]:
                            chemical_smiles  test_readout  measured_result
0       Clc1cc(N2C[C@@H]3CN[C@@H]3C2)cnc1Cl        Log Ki            -9.53
1  N#Cc1cc(N2C[C@H]3CNC[C@H]32)c[n+]([O-])c1        Log Ki            -7.74
2       Cc1ncc(N2C[C@@H]3CN[C@@H]3C2)cc1C#N        Log Ki             -9.2
3         COc1cc(N2C[C@H]3CNC[C@H]32)cnc1Br        Log Ki            -9.68
4         Clc1cc(N2C[C@H]3CNC[C@H]32)cnc1Cl        Log Ki            -9.55

For Cc1cc(N2C[C@H]3CNC[C@H]32)cnc1Cl , write its Log Ki.
-9.7

For Cc1cc(N2C[C@H]3CN[C@H]3C2)cnc1C , write its Log Ki.
-9.59

For Clc1cc(N2C[C@@H]3CN[C@@H]3C2)cnc1Br , write its Log Ki.
-9.62

For Clc1cc(N2C[C@H]3CN[C@H]3C2)cnc1Cl , write its Log Ki.
-10.4

For Cc1cc(N2C[C@@H]3CNC[C@@H]32)cnc1C , write its Log Ki.
-8.51

For Clc1cncc(N2C[C@H]3CNC[C@H]32)c1 , write its Log Ki.
-8.53

For Cc1cc(N2C[C@H]3CN[C@H]3C2)cnc1Cl , write its Log Ki.
-10.4

For Cc1cc(N2C[C@@H]3CN[C@@H]3C2)cnc1Cl , write its Log Ki.
-10.1

For Cc1cncc(N2C[C@@H]3CN[C@@H]3C2)c1 , write its Log Ki.
-8.61

For Cc1cc(N2C[C@@H]3CNC[C@@H]32)cnc1Cl , write its Log Ki.
-9.7

For Brc1cc(N2C[C@@H]3CN[C@@H]3C2)cnc1Br , write its Log Ki.
-9.52

For Cc1cc(N2C[C@H]3CNC[C@H]32)cnc1C , write its Log Ki.
-8.1

For Cc1ncc(N2C[C@H]3CNC[C@H]32)cc1C#N , write its Log Ki.
-8.95

For Brc1cncc(N2C[C@@H]3CNC[C@@H]32)c1 , write its Log Ki.
-8.83

For C#Cc1cncc(N2C[C@@H]3CNC[C@@H]32)c1 , write its Log Ki.
-9.21

For COc1cncc(N2C[C@@H]3CNC[C@@H]32)c1 , write its Log Ki.
-8.14

* * *

Recorded pEC50 values for a group of compounds are listed next.
- assay.target: Neuronal acetylcholine receptor; alpha3/beta4 (Homo sapiens, UniProt P30926+P32297)
- protocol.notes: Agonist activity at recombinant human alpha-3-beta-4 nAChR expressed in HEK293 cells assessed as induction of calcium influx by FLIPR assay
- Type: functional, cell-based
- conditions: read-out: EC50
// scale note: pEC50 = -log10(conc_M); give the bare number

Here's what some known entries look like.
                       chemical_smiles                              assay_target  measured_result
0    Cc1ncc(N2C[C@H]3CN[C@H]3C2)cc1C#N  Neuronal acetylcholine receptor; alpha3/beta4 (Homo sapiens, UniProt P30926+P32297)             7.05
1  COc1cc(N2C[C@@H]3CN[C@@H]3C2)cnc1Br  Neuronal acetylcholine receptor; alpha3/beta4 (Homo sapiens, UniProt P30926+P32297)             5.40
2     N#Cc1cncc(N2C[C@H]3CN[C@H]3C2)c1  Neuronal acetylcholine receptor; alpha3/beta4 (Homo sapiens, UniProt P30926+P32297)             6.52

Now for a further compound.
Name the value of pEC50 reported for c1cncc(N2C[C@@H]3CNC[C@@H]32)c1 when tested on Neuronal acetylcholine receptor; alpha3/beta4 (Homo sapiens, UniProt P30926+P32297).
5.01

* * *

- assay.target: Neuronal acetylcholine receptor; alpha3/beta4 (Homo sapiens, UniProt P30926+P32297)
- protocol.notes: Agonist activity at recombinant human alpha3beta4 nAChR expressed in HEK293 cells assessed as induction of calcium influx by FLIPR assay relative to nicotine
- Assay type: functional, cell-based
Recorded Activity values for a group of compounds are listed next.
Dear colleague, please return just the value in %, with no unit written.

>>> print(df.to_string())
                   chemical_smiles  test_readout  measured_result
0  Clc1ccc(N2C[C@H]3CN[C@H]3C2)cn1      Activity              105

For Cc1ncc(N2C[C@H]3CNC[C@H]32)cc1C#N , write its Activity.
96

For Cc1cc(N2C[C@H]3CN[C@H]3C2)cnc1Cl , write its Activity.
119

For Cc1cc(N2C[C@@H]3CN[C@@H]3C2)cnc1C , write its Activity.
85

For Cc1cc(N2C[C@H]3CN[C@H]3C2)cnc1C , write its Activity.
96

For Clc1cc(N2C[C@@H]3CN[C@@H]3C2)cnc1Br , write its Activity.
92

For Cc1cc(N2C[C@H]3CNC[C@H]32)cnc1Cl , write its Activity.
97

For N#Cc1cncc(N2C[C@H]3CN[C@H]3C2)c1 , write its Activity.
102

For Cc1cncc(N2C[C@@H]3CNC[C@@H]32)c1 , write its Activity.
74

* * *

- assay.target: Neuronal acetylcholine receptor; alpha3/beta4 (Homo sapiens, UniProt P30926+P32297)
- protocol.notes: Agonist activity at recombinant human alpha-3-beta-4 nAChR expressed in HEK293 cells assessed as induction of calcium influx by FLIPR assay
- Type: functional, cell-based
- conditions: read-out: EC50
Recorded pEC50 values for a group of compounds are listed next.
// scale note: pEC50 = -log10(conc_M); give the bare number

Here's what some known entries look like.
>>> print(df.to_string())
                       chemical_smiles                              assay_target  measured_result
0    COc1cncc(N2C[C@@H]3CNC[C@@H]32)c1  Neuronal acetylcholine receptor; alpha3/beta4 (Homo sapiens, UniProt P30926+P32297)             4.51
1  Clc1cc(N2C[C@@H]3CN[C@@H]3C2)cnc1Cl  Neuronal acetylcholine receptor; alpha3/beta4 (Homo sapiens, UniProt P30926+P32297)             5.82

For Clc1cc(N2C[C@H]3CN[C@H]3C2)cnc1Cl , write its pEC50.
7.30
